Molecular target: EGFR on EGFR positive non-small cell lung cancer cells NCI-H1650 (UniProt P00533 25-1210)
Experiment: cell-based or functional assay
REPORTED_METRIC: H1650 GFP Flourescence EC50 (µg/mL)
Give just the number in µg/mL; leave the unit off.

In the examples that follow, each entry is paired with its recorded H1650 GFP Flourescence EC50.
# BINDER, H1650 GFP Flourescence EC50, µg/mL
data = [
    ("AbA-LB (antibody, human IgG1, kappa, V domains shown, synthon LB on reduced interchain cysteines; average DAR 2.4 per ADC) VH: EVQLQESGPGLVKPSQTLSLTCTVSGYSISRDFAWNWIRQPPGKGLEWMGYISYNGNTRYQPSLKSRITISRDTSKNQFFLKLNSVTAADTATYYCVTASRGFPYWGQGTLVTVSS VL: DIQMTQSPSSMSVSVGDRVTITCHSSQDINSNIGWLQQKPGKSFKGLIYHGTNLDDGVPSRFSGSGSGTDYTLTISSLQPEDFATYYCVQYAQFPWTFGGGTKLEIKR", 2.48),
    ("AbK-YG (antibody, human IgG1, kappa, V domains shown, synthon YG on reduced interchain cysteines; average DAR 0.9 per ADC) VH: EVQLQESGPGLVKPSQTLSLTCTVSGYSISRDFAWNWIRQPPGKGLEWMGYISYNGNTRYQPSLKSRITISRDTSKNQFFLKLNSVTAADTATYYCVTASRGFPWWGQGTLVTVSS VL: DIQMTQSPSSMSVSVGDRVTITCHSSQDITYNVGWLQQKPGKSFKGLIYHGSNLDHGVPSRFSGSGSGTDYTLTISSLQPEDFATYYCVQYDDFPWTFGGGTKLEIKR", 10.4),
    ("AbG-AAA (antibody, human IgG1, kappa, V domains shown, synthon AAA on reduced interchain cysteines; average DAR 1.9 per ADC) VH: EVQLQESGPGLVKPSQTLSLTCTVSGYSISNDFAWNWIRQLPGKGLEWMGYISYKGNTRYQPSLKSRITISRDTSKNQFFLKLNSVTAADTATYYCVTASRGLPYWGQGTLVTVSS VL: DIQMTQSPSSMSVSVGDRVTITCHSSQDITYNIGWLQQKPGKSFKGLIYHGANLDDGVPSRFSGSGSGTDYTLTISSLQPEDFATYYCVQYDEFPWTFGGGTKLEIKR", 0.17),
    ("AbA-WD (antibody, human IgG1, kappa, V domains shown, synthon WD on reduced interchain cysteines; average DAR 1.8 per ADC) VH: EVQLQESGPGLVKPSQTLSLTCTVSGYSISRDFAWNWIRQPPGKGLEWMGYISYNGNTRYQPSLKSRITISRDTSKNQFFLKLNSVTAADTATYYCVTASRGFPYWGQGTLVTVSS VL: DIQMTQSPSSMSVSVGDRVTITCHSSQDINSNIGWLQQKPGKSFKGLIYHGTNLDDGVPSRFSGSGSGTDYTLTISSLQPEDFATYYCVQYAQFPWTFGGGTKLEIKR", 7.62),
]

Proceed to the following item.
Report H1650 GFP Flourescence EC50 for AbG-ZZ (antibody, human IgG1, kappa, V domains shown, synthon ZZ on reduced interchain cysteines; average DAR 1.4 per ADC) VH: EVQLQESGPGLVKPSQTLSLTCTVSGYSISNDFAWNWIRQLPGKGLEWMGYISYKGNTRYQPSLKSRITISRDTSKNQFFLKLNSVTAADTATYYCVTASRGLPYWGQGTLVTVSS VL: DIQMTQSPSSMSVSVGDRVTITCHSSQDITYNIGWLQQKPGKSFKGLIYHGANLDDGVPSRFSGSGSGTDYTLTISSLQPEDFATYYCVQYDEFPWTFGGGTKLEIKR please.
0.44
